Tested on: NCI-H727
Experiment: relative viability (nuclei count vs DMSO), 5 days (fraction); higher = more cells survive
Conditions: first compound 0.1581 µM
Mark yes for relative viability under 0.6, no if at or over.

Problem: Decide: relative viability of COc1cc2nccc(Oc3ccc(NC(=O)Nc4cc(C)on4)c(Cl)c3)c2cc1OC [Tivozanib] + COc1cc2c(Oc3ccc(NC(=O)C4(C(=O)Nc5ccc(F)cc5)CC4)cc3F)ccnc2cc1OCCCN1CCOCC1 [Foretinib] (partner 0.25 µM) strictly below 0.6?
Solution: no

Problem: Now consider Nc1ccn([C@@H]2O[C@H](CO)[C@@H](O)[C@@H]2O)c(=O)n1 [Cytarabine] + O=C(c1cc(Cc2n[nH]c(=O)c3ccccc23)ccc1F)N1CCN(C(=O)C2CC2)CC1 [Olaparib] (partner 8 µM) .
Solution: yes

Problem: What do you get for COc1cc2nccc(Oc3ccc(NC(=O)Nc4cc(C)on4)c(Cl)c3)c2cc1OC [Tivozanib] + Cc1cc(Nc2cc(N3CCN(C)CC3)nc(Sc3ccc(NC(=O)C4CC4)cc3)n2)n[nH]1 [Tozasertib] (partner 0.1 µM) ?
Solution: no

Problem: Next entry: Nc1ccn([C@@H]2O[C@H](CO)[C@@H](O)[C@@H]2O)c(=O)n1 [Cytarabine] + CC1(C)CCC(c2ccc(Cl)cc2)=C(CN2CCN(c3ccc(C(=O)NS(=O)(=O)c4ccc(N[C@H](CCN5CCOCC5)CSc5ccccc5)c(S(=O)(=O)C(F)(F)F)c4)cc3)CC2)C1 [Navitoclax] (partner 0.5 µM)
Solution: yes

Problem: What do we get for Nc1ccn([C@@H]2O[C@H](CO)[C@@H](O)[C@@H]2O)c(=O)n1 [Cytarabine] + Cc1nc(NC(=O)N2CCC[C@H]2C(N)=O)sc1-c1ccnc(C(C)(C)C(F)(F)F)c1 [Alpelisib] (partner 2 µM) ?
Solution: yes

Problem: For Nc1ccn([C@@H]2O[C@H](CO)[C@@H](O)[C@@H]2O)c(=O)n1 [Cytarabine] + NC(=O)Nc1cc(-c2cccc(F)c2)sc1C(=O)N[C@H]1CCCNC1 [AZD7762] (partner 0.2 µM) then?
Solution: yes

Problem: Here is the next molecule: Nc1ccn([C@@H]2O[C@H](CO)[C@@H](O)[C@@H]2O)c(=O)n1 [Cytarabine] + O=C(CCCCCCC(=O)Nc1ccccc1)NO [Vorinostat] (partner 1 µM)
Solution: yes

Problem: Param item: Nc1ccn([C@@H]2O[C@H](CO)[C@@H](O)[C@@H]2O)c(=O)n1 [Cytarabine] + CS(=O)(=O)N1CCN(Cc2cc3nc(-c4cccc5[nH]ncc45)nc(N4CCOCC4)c3s2)CC1 [Pictilisib] (partner 1 µM)
Solution: yes

* * *

Test system: HCC-15
Assay: relative viability (nuclei count vs DMSO), 5 days (fraction); higher = more cells survive
Conditions: first compound 0.5 µM
property_name: relative viability
// print number alone

Problem: Which measured relative viability value corresponds to COc1cc2nccc(Oc3ccc(NC(=O)Nc4cc(C)on4)c(Cl)c3)c2cc1OC [Tivozanib] + CCNC(=O)c1noc(-c2cc(C(C)C)c(O)cc2O)c1-c1ccc(CN2CCOCC2)cc1 [Luminespib] (partner 0.01 µM) ?
Solution: 0.378

Problem: Now this one: COc1cc2nccc(Oc3ccc(NC(=O)Nc4cc(C)on4)c(Cl)c3)c2cc1OC [Tivozanib] + CS(=O)(=O)CCNCc1ccc(-c2ccc3ncnc(Nc4ccc(OCc5cccc(F)c5)c(Cl)c4)c3c2)o1 [Lapatinib] (partner 2 µM)
Solution: 0.831

Problem: And then Nc1ccn([C@@H]2O[C@H](CO)[C@@H](O)[C@@H]2O)c(=O)n1 [Cytarabine] + CS(=O)(=O)N1CCN(Cc2cc3nc(-c4cccc5[nH]ncc45)nc(N4CCOCC4)c3s2)CC1 [Pictilisib] (partner 1 µM) , what is it?
Solution: 0.453

Problem: Next compound: Nc1ccn([C@@H]2O[C@H](CO)[C@@H](O)[C@@H]2O)c(=O)n1 [Cytarabine] + CC(C)C[C@H](NC(=O)[C@H](Cc1ccccc1)NC(=O)c1cnccn1)B(O)O [Bortezomib] (partner 0.002 µM)
Solution: 0.668

* * *

Tested on: EPLC-272H
Assay: relative viability (nuclei count vs DMSO), 5 days (fraction); higher = more cells survive
Details: first compound 0.005 µM
property_name: relative viability
A bare number is all that is needed in reply.

Problem: Quick one: relative viability of COc1cc2nccc(Oc3ccc(NC(=O)Nc4cc(C)on4)c(Cl)c3)c2cc1OC [Tivozanib] + CC(=O)Nc1cccc(-n2c(=O)n(C3CC3)c(=O)c3c(Nc4ccc(I)cc4F)n(C)c(=O)c(C)c32)c1 [Trametinib] (partner 0.02 µM) ?
Solution: 0.243

Problem: What about Nc1ccn([C@@H]2O[C@H](CO)[C@@H](O)[C@@H]2O)c(=O)n1 [Cytarabine] + COc1cccc2cc(-c3nc([C@H]4CC[C@H](C(=O)O)CC4)n4ncnc(N)c34)[nH]c12 [OSI-027] (partner 0.5 µM) ?
Solution: 0.268

* * *

I'd appreciate it if you could supply relative viability values for the items below.
Tested on: NCI-H1355
Assay: relative viability (nuclei count vs DMSO), 5 days (fraction); higher = more cells survive
Conditions: first compound 0.005 µM
The answer should be written as a number, with no unit following it.

Problem: Given COc1cc2nccc(Oc3ccc(NC(=O)Nc4cc(C)on4)c(Cl)c3)c2cc1OC [Tivozanib] + COc1cccc2cc(-c3nc([C@H]4CC[C@H](C(=O)O)CC4)n4ncnc(N)c34)[nH]c12 [OSI-027] (partner 0.5 µM) , state its recorded relative viability.
Solution: 0.419

Problem: Check COc1cc2nccc(Oc3ccc(NC(=O)Nc4cc(C)on4)c(Cl)c3)c2cc1OC [Tivozanib] + Cc1nc(Nc2ncc(C(=O)Nc3c(C)cccc3Cl)s2)cc(N2CCN(CCO)CC2)n1 [Dasatinib] (partner 0.075 µM) too.
Solution: 0.672

Problem: Another: COc1cc2nccc(Oc3ccc(NC(=O)Nc4cc(C)on4)c(Cl)c3)c2cc1OC [Tivozanib] + Nc1nc2[nH]cc(CCc3ccc(C(=O)N[C@@H](CCC(=O)O)C(=O)O)cc3)c2c(=O)[nH]1 [Pemetrexed] (partner 0.2 µM)
Solution: 1.03

Problem: Further, for COc1cc2nccc(Oc3ccc(NC(=O)Nc4cc(C)on4)c(Cl)c3)c2cc1OC [Tivozanib] + Nc1ncn([C@H]2C[C@H](O)[C@@H](CO)O2)c(=O)n1 [Decitabine] (partner 2 µM) ?
Solution: 0.318

Problem: Then what about the compound Nc1ccn([C@@H]2O[C@H](CO)[C@@H](O)[C@@H]2O)c(=O)n1 [Cytarabine] + N=C(N)NC(=N)NCCc1ccccc1 [Phenformin] (partner 250 µM) ?
Solution: 0.353

Problem: Also COc1cc2nccc(Oc3ccc(NC(=O)Nc4cc(C)on4)c(Cl)c3)c2cc1OC [Tivozanib] + Cc1cc(Nc2cc(N3CCN(C)CC3)nc(Sc3ccc(NC(=O)C4CC4)cc3)n2)n[nH]1 [Tozasertib] (partner 0.1 µM) , if possible.
Solution: 0.515

Problem: Moving on to the next compound: Nc1ccn([C@@H]2O[C@H](CO)[C@@H](O)[C@@H]2O)c(=O)n1 [Cytarabine] + O=C(CCCCCCC(=O)Nc1ccccc1)NO [Vorinostat] (partner 1 µM)
Solution: 0.578

Problem: Likewise for Nc1ccn([C@@H]2O[C@H](CO)[C@@H](O)[C@@H]2O)c(=O)n1 [Cytarabine] + Nc1nc2[nH]cc(CCc3ccc(C(=O)N[C@@H](CCC(=O)O)C(=O)O)cc3)c2c(=O)[nH]1 [Pemetrexed] (partner 0.2 µM) ?
Solution: 0.883

Problem: Quick one: COc1cc2nccc(Oc3ccc(NC(=O)Nc4cc(C)on4)c(Cl)c3)c2cc1OC [Tivozanib] + CC1(C)CCC(c2ccc(Cl)cc2)=C(CN2CCN(c3ccc(C(=O)NS(=O)(=O)c4ccc(N[C@H](CCN5CCOCC5)CSc5ccccc5)c(S(=O)(=O)C(F)(F)F)c4)cc3)CC2)C1 [Navitoclax] (partner 0.5 µM)
Solution: 0.844

Problem: Try this compound next: COc1cc2nccc(Oc3ccc(NC(=O)Nc4cc(C)on4)c(Cl)c3)c2cc1OC [Tivozanib] + C[C@@H](Oc1cc(-c2cnn(C3CCNCC3)c2)cnc1N)c1c(Cl)ccc(F)c1Cl [Crizotinib] (partner 1 µM)
Solution: 1.03

Problem: Can you check Nc1ccn([C@@H]2O[C@H](CO)[C@@H](O)[C@@H]2O)c(=O)n1 [Cytarabine] + CC1(C)CCC(c2ccc(Cl)cc2)=C(CN2CCN(c3ccc(C(=O)NS(=O)(=O)c4ccc(N[C@H](CCN5CCOCC5)CSc5ccccc5)c(S(=O)(=O)C(F)(F)F)c4)cc3)CC2)C1 [Navitoclax] (partner 0.5 µM) next?
Solution: 0.897

Problem: Next entry: COc1cc2nccc(Oc3ccc(NC(=O)Nc4cc(C)on4)c(Cl)c3)c2cc1OC [Tivozanib] + CC(=O)c1c(C)c2cnc(Nc3ccc(N4CCNCC4)cn3)nc2n(C2CCCC2)c1=O [Palbociclib] (partner 0.5 µM)
Solution: 0.401

Problem: Try this compound next: COc1cc2nccc(Oc3ccc(NC(=O)Nc4cc(C)on4)c(Cl)c3)c2cc1OC [Tivozanib] + CS(=O)(=O)CCNCc1ccc(-c2ccc3ncnc(Nc4ccc(OCc5cccc(F)c5)c(Cl)c4)c3c2)o1 [Lapatinib] (partner 2 µM)
Solution: 0.894

Problem: Try the compound Nc1ccn([C@@H]2O[C@H](CO)[C@@H](O)[C@@H]2O)c(=O)n1 [Cytarabine] + O=C(c1cc(Cc2n[nH]c(=O)c3ccccc23)ccc1F)N1CCN(C(=O)C2CC2)CC1 [Olaparib] (partner 8 µM)
Solution: 0.731

Problem: // next record Nc1ccn([C@@H]2O[C@H](CO)[C@@H](O)[C@@H]2O)c(=O)n1 [Cytarabine] + Cc1nc(Nc2ncc(C(=O)Nc3c(C)cccc3Cl)s2)cc(N2CCN(CCO)CC2)n1 [Dasatinib] (partner 0.075 µM)
Solution: 0.641
